Some molecules, each annotated with its measured IC50.
# target: affinity purified β2GPI-dependent antiphospholipid antibody
# testSummary: Competitive inhibition ELISA: recombinant β2GPI proteins compete for antibody binding to coated full length recombinant β2GPI
# Set-up: species or system human
# conditionSet: Ab 6641; read-out: 50% (concentration to give 50% inhibition)
observable: IC50

molecule	measurement
-2345: recombinant β2GPI deletion mutant with domains 2-5 (protein) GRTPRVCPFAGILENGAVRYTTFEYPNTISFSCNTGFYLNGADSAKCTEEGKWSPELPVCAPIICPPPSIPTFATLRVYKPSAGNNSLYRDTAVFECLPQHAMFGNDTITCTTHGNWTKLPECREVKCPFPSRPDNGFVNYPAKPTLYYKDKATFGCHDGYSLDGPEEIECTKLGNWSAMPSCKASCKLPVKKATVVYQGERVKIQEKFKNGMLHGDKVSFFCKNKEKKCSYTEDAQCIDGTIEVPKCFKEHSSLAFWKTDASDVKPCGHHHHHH	> 16 µM
recombinant β2GPI domain 5 with GlyHis6 (----5) (protein) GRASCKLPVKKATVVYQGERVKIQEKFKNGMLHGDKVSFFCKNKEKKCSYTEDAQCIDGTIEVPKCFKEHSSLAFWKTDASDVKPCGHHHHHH	> 47 µM
1----: recombinant β2GPI protein with domain 1 only (SEQ ID NO:4 region), His6 tail (protein) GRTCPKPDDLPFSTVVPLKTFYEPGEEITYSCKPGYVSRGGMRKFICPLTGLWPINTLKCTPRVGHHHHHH	> 10 µM
